Cited source for all entries: paper PMC11871066

- EXPERIMENTAL TARGET: T1, biotinylated AviTag FAK FAT protein (human, biotin)
- T1 construct: focal adhesion kinase (FAK), focal adhesion targeting (FAT) domain; captured on a streptavidin biosensor; also called focal adhesion targeting (FAT) domain
- PROCEDURE TEXT: SPR; biotinylated AviTag FAT immobilised on a streptavidin (SADH) biosensor, ForteBio Pioneer FE, OneStep gradient injection at 150 µl/min; 100 mM Tris-Cl pH 8.0, 200 mM NaCl, 0.05% Tween-20; peptides 200 µM to 97 nM; KD from kinetic data, one-site model
- ASSAY CONDITIONS: both partners purified
Bridge positions count the residues as written; N and C are the ends. Square brackets hold non-standard residues; d marks the D form. R8 = C=CCCCCCC[C@@](C)(N)C(=O)O; S5 = C=CCCC[C@](C)(N)C(=O)O
I'd appreciate it if you could supply Kd values for the items below.
Return type: number; implicit unit µM.

Item under review: Ac-NLSE[S5]DRL[S5]LELN-NH2 (staple 5-9) [stapled peptide 1919] . Reported Kd?
80.6

Now try Ac-NL[R8]ALDALL[S5]ELN-NH2 (staple 3-10) [stapled peptide 2010] .
12.6
